Please provide measured IC50 for the entries that follow.
- System: HT-29
- assay.comment: Cytotoxicity against human HT-29 cells by MTT assay
- Format: functional, cell-based
Answers are plain numbers, in µM.

The examples below pair each entry with its known result.
c1ccc(CCCn2c3ccccc3c3cc[n+](Cc4ccccc4)c(-c4ccccc4)c32)cc1 ... 10.8
CCCCCCCCn1c2ccccc2c2cc[n+](Cc3ccccc3)cc21 ... 10.9
CC(C)Cn1c2ccccc2c2cc[n+](Cc3ccccc3)cc21 ... 87.7

Hey, quick one: what's IC50 for each of these?
1. CCCC[n+]1ccc2c3ccccc3n(CCCc3ccccc3)c2c1
2. COc1ccc(-c2c3c(cc[n+]2Cc2ccccc2)c2ccccc2n3CCCc2ccccc2)cc1.[Br-]
3. c1ccc(CCCn2c3ccccc3c3cc[n+](CCc4ccccc4)cc32)cc1
4. CCCCn1c2ccccc2c2cc[n+](Cc3ccccc3)cc21
5. O=[N+]([O-])c1ccc(C[n+]2ccc3c4ccccc4n(CCCc4ccccc4)c3c2)cc1
6. Clc1cccc(C[n+]2ccc3c4ccccc4n(CCCc4ccccc4)c3c2)c1.[Br-]
7. c1ccc(CCCn2c3ccccc3c3cc[n+](CCCc4ccccc4)cc32)cc1
8. [Br-].c1ccc(CCCn2c3ccccc3c3cc[n+](Cc4ccccc4)cc32)cc1

1. 62.7
2. 2.4
3. 3.3
4. 83.8
5. 12.6
6. 16.5
7. 3.4
8. 7.6

Hey, quick one: what's IC50 for each of these?
1. Cc1c2c(cc[n+]1Cc1ccccc1)c1ccccc1n2CCCc1ccccc1.[Br-]
2. CCCCCCCCCC[n+]1ccc2c3ccccc3n(CCCc3ccccc3)c2c1
3. C[n+]1ccc2c3ccccc3n(CCCc3ccccc3)c2c1
4. CC[n+]1ccc2c3ccccc3n(CCCc3ccccc3)c2c1
5. Cn1c2ccccc2c2cc[n+](Cc3ccccc3)cc21
6. Fc1ccc(C[n+]2ccc3c4ccccc4n(CCCc4ccccc4)c3c2)cc1.[Cl-]
7. Clc1cccc(Cn2c3ccccc3c3cc[n+](Cc4ccccc4)cc32)c1

14.6
31.3
97.3
54.2
59.1
9.1
26.9

Hey, quick one: what's IC50 for each of these?
1. c1ccc(Cn2c3ccccc3c3cc[n+](Cc4ccccc4)cc32)cc1
2. Fc1ccc(Cn2c3ccccc3c3cc[n+](Cc4ccccc4)cc32)cc1

1. 42.5
2. 28.9

Data origin: ChEMBL document CHEMBL2401724
